system: HEPG2 (Liver) tumor cells; experiment: alamarBlue growth inhibition, HEPG2; type: cell-based, human; conditions: Homo sapiens, 120 hours

[
  {
    "structure-as-smiles": "O=c1[nH]cc(F)c(=O)[nH]1",
    "test-target": "HEPG2 (Liver) tumor cells",
    "endpoint-unit": "µM",
    "IC50": 22.8
  }
]

----------
Target: rHuTS (recombinant human thymidylate synthase) (Homo sapiens, UniProt P04818)
Construct: His tag (from pET-28a(+)) (N); made in house; host or cells: E. coli BL21 (DE3)/pET-28a(+)
Sequence (P04818 whole entry): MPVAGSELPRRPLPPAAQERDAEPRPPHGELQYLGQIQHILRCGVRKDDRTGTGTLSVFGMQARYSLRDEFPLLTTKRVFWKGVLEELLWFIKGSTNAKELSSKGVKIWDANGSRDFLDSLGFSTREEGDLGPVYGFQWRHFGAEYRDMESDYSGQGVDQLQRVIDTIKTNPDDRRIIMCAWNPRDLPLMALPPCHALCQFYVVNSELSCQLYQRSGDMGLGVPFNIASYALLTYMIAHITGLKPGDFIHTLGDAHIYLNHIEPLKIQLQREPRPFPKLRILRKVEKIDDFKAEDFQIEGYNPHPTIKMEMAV
Assay: Enzyme kinetics of rHuTS with dUMP and BVdUMP
Assay type: biochemical
Settings: rHuTS, BVdUMP reaction; read-out: Kl (of dUMP)
Procedure: Enzyme Preparation. Cloned human thymidylate synthase plasmid pBCHTS was subcloned into E. coli. BL21 (DE3)/pET-28a(+) (Novagen) using the Ndel ñSacI insertion site, in order to add an amino terminal His tag. […] Enzyme kinetic constants (Km and Vmax) were determined for the human thymidylate synthase substrates dUMP and BVdUMP using the enzyme assay conditions described above. […] The catalytic efficiency of the enzyme (Kcat/Km) was calculated from the kinetic constants Km and Vmax.
pKi: −log10 of the molar value.

[
  {
    "structure-as-smiles": "O=c1ccn([C@H]2C[C@H](O)[C@@H](COP(=O)(O)O)O2)c(=O)[nH]1",
    "pKi": 4.76
  }
]
